The values you see were collected from patent US12102648B2.

efflux ratio at 90 min values, listed per item
protocol summary: in vitro
Format: in vitro ADME
run conditions: human, Caco-2

// below: answered compounds
[[record]]
compound = "CCCCC(=O)Nc1ncnn2c([C@]3(C#N)O[C@H](COC(C)=O)[C@@H](O)[C@H]3O)ccc12 [Compound 288]"
data_value = 7.7

[[record]]
compound = "CCC(=O)O[C@H]1[C@@H](O)[C@](C#N)(c2ccc3c(N)ncnn23)O[C@@H]1COC(=O)CC(C)C [Compound 23]"
data_value = 1.3

[[record]]
compound = "N#C[C@@]1(c2ccc3c(N)ncnn23)O[C@H](COC(=O)CC2CCC(C(F)(F)F)CC2)[C@@H](O)[C@H]1O (stereo partly shown) [Compound 270]"
data_value = 3.7


Record N#C[C@@]1(c2ccc3c(N)ncnn23)O[C@H](COC(=O)CC2CCC3(CCCC3)CC2)[C@@H](O)[C@H]1O [Compound 279] , field efflux ratio at 90 min: 0.64

The compound CC(=O)OCOC(=O)OC[C@H]1O[C@@](C#N)(c2ccc3c(NC(=O)[C@@H](N)Cc4ccc(F)cc4)ncnn23)[C@H](O)[C@@H]1O [Compound 366] showed efflux ratio at 90 min equal to 0.39

Query CCCC(=O)Nc1ncnn2c([C@]3(C#N)O[C@H](COC(=O)[C@@H](N)C(C)C)[C@@H](OC(=O)CC)[C@H]3O)ccc12 [Compound 357] yields efflux ratio at 90 min of 1.9

Notebook: CC(C)C(=O)O[C@H]1[C@@H](O)[C@](C#N)(c2ccc3c(N)ncnn23)O[C@@H]1COC(=O)CC1CCCCC1 [Compound 30] , efflux ratio at 90 min read as 1

====

protocol summary: in vitro
Format: in vitro ADME
run conditions: human, Caco-2
property measured: efflux ratio at 90 min
# answer = number (no unit)

Use these answered entries as a reference point.
[[record]]
compound_smiles = "N#C[C@@]1(c2ccc3c(NC(=O)c4ccccc4)ncnn23)O[C@H](CO)[C@@H](OC(=O)CC2CCCCC2)[C@H]1O"
property_measured = "efflux ratio at 90 min"
data_value = 0.34

[[record]]
compound_smiles = "CCCC(=O)Nc1ncnn2c([C@]3(C#N)O[C@H](COC(=O)CC4CCCCC4)[C@@H](OCOC(=O)C(C)(C)C)[C@H]3O)ccc12"
property_measured = "efflux ratio at 90 min"
data_value = 0.22

[[record]]
compound_smiles = "CCC(=O)OC[C@H]1O[C@@H](n2cnc3c(NC)nc(N)nc32)[C@](C)(F)[C@@H]1OC(C)=O"
property_measured = "efflux ratio at 90 min"
data_value = 0.64

[[record]]
compound_smiles = "CC(=O)O[C@H]1[C@@H](O)[C@](C#N)(c2ccc3c(N)ncnn23)O[C@@H]1COC(=O)[C@@H](N)C(C)C"
property_measured = "efflux ratio at 90 min"
data_value = 0.33

[[record]]
compound_smiles = "CCCCC(=O)Nc1ncnn2c([C@]3(C#N)O[C@H](COC(=O)[C@@H](N)C(C)C)[C@@H](O)[C@H]3O)ccc12"
property_measured = "efflux ratio at 90 min"
data_value = 18

[[record]]
compound_smiles = "CC(C)CC(=O)OC[C@H]1O[C@@](C#N)(c2ccc3c(NC(=O)c4ccccc4)ncnn23)[C@H](O)[C@@H]1O"
property_measured = "efflux ratio at 90 min"
data_value = 0.9


Switching to the query record.
Sure, the documented efflux ratio at 90 min for "N#C[C@@]1(c2ccc3c(N)ncnn23)O[C@H](COC(=O)[C@@H](N)Cc2ccccc2)[C@@H](OC(=O)CC2CCCCC2)[C@H]1O" is 1.1
